# test-description: DRUGMATRIX: Leukotriene, BLT (LTB4) radioligand binding (ligand: [3H]LTB4)
# Type: cell membranes, Membrane
# condition-notes: u-937; Not Active = under 50% inhibition at 10 µM
readout-name: IC50

Sample records with IC50:
Cn1c(=O)c2nc[nH]c2n(C)c1=O.O :: Not Active
CO[C@H]1/C=C/O[C@@]2(C)Oc3c(C)c(O)c4c(O)c(c(/C=N/N5CCN(C6CCCC6)CC5)c(O)c4c3C2=O)NC(=O)/C(C)=C\C=C\[C@H](C)[C@H](O)[C@@H](C)[C@@H](O)[C@@H](C)[C@H](OC(C)=O)[C@@H]1C :: Not Active
O=C(O)c1cn(-c2ccc(F)cc2)c2cc(N3CCNCC3)c(F)cc2c1=O :: Not Active
CN/C(=N\CCSCc1nc[nH]c1C)NC#N :: Not Active
Clc1ccccc1CN1CCc2sccc2C1 :: Not Active

Query block: Complete the entry with IC50 for OC(CCCN1CCCCC1)(c1ccccc1)c1ccccc1
Result block: Not Active

Query block: Complete the entry with IC50 for Oc1c(Cl)cc(Cl)c(Cl)c1Cc1c(O)c(Cl)cc(Cl)c1Cl
Result block: Not Active

---

# target-desc: Tyrosine-protein kinase Fyn (Homo sapiens); further: in other assays of this panel Not Active means under 50% inhibition at 10 µM
# Sequence (P06241 whole entry): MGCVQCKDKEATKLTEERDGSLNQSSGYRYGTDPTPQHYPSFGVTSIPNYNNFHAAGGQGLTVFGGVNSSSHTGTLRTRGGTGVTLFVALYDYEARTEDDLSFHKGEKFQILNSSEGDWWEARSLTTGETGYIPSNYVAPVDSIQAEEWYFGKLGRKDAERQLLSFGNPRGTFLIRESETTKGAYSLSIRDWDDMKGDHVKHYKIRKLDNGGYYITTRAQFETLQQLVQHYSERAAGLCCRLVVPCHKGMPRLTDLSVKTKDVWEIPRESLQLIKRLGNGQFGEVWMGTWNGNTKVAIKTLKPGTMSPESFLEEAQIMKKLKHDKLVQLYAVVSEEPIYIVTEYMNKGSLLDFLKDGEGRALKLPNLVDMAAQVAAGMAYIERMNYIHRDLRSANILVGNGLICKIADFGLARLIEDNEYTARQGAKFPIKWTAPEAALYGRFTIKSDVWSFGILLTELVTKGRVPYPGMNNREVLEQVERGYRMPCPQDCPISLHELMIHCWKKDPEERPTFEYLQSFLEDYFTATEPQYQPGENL
# test-description: biochemical
# Assay type: cell-based, Insect cells
# condition-notes: read-out: IC50
List of pIC50 values.
pIC50 here is simply -log10 of the concentration when that concentration is written in mol/L.

Oc1c(Cl)cc(Cl)c(Cl)c1Cc1c(O)c(Cl)cc(Cl)c1Cl [HEXACHLOROPHENE] :: 5.46
Cc1c(C)c2c(c(C)c1O)CCC(C)(CN1CCN(c3cc(N4CCCC4)nc(N4CCCC4)n3)CC1)O2 (stereo unspecified) :: 5.78
CC(=O)O[C@H]1C(=O)[C@@]2(C)[C@H]([C@H](OC(=O)c3ccccc3)[C@]3(O)C[C@H](OC(=O)[C@H](O)[C@@H](NC(=O)c4ccccc4)c4ccccc4)C(C)=C1C3(C)C)[C@]1(OC(C)=O)CO[C@@H]1C[C@@H]2O [PACLITAXEL] :: 4.62
CCN(CC)CCOc1ccc(/C(=C(/Cl)c2ccccc2)c2ccccc2)cc1 [ENCLOMIPHENE] :: 5.60

Query block: Specify pIC50 for Clc1ccc(COC(Cn2ccnc2)c2ccc(Cl)cc2Cl)cc1 (stereo unspecified) [ECONAZOLE] , system Tyrosine-protein kinase Fyn (Homo sapiens). Further: in other assays of this panel Not Active means under 50% inhibition at 10 µM.
Result block: 4.92

Query block: Specify pIC50 for Oc1cccc(O)c1O [PYROGALLOL] , system Tyrosine-protein kinase Fyn (Homo sapiens).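 Further: enzymatic inhibition of Fyn kinase activity measured with Poly(Glu:Tyr) as the phosphorylation substrate.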 Further: in other assays of this panel Not Active means under 50% inhibition at 10 µM.
Result block: 6.00

---

# target-desc: Alpha-1B adrenergic receptor (Rattus norvegicus, UniProt P15823)
# Sequence (P15823 whole entry): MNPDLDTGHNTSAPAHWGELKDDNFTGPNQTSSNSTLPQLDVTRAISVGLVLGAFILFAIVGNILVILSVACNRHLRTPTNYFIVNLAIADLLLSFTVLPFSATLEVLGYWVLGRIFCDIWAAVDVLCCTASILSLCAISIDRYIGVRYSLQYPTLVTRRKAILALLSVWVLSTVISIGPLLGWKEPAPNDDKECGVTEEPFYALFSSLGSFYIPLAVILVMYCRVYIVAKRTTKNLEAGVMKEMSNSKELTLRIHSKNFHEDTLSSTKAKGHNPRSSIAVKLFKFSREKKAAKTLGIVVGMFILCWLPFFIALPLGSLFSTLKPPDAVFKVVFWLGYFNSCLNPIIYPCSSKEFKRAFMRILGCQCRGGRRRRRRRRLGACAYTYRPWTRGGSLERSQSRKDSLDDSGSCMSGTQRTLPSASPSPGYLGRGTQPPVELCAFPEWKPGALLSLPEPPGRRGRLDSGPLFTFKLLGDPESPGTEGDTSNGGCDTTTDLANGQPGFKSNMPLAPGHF
# test-description: DRUGMATRIX: Alpha-1B adrenergic receptor radioligand binding (ligand: prazosin)
# Type: cell membranes, Wistar, Liver, Membrane
# condition-notes: Not Active = under 50% inhibition at 10 µM
readout-name: IC50

Sample records with IC50:
C[C@@H](CO)NC(=O)[C@@H]1C=C2c3cccc4[nH]cc(c34)C[C@H]2N(C)C1 [ERGONOVINE] :: Not Active
CC(C)NNC(=O)c1ccncc1 [IPRONIAZID] :: Not Active
O=C(O)c1cn(-c2ccc(F)cc2)c2cc(N3CCNCC3)c(F)cc2c1=O [SARAFLOXACIN] :: Not Active
CC(=O)Oc1ccc(C(c2ccc(OC(C)=O)cc2)c2ccccn2)cc1 [BISACODYL] :: Not Active

Lab note: next compound to report on.
Query block: Specify IC50 for Cc1cc2c(OCC(CNC(C)(C)C)OC(=O)c3ccccc3)cccc2[nH]1 (stereo not given) [BOPINDOLOL] , system Alpha-1B adrenergic receptor (Rattus norvegicus, UniProt P15823).
Result block: Not Active

---

# test-description: DRUGMATRIX: GABAA, Chloride Channel, TBOB radioligand binding (ligand: [3H] TBOB)
# Assay type: cell membranes, Rattus norvegicus, Wistar, Cerebral cortex, Membrane
# condition-notes: Not Active = under 50% inhibition at 10 µM
readout-name: IC50

Sample records with IC50:
CN(C)[C@@H]1C(O)=C(C(N)=O)C(=O)[C@@]2(O)C(O)=C3C(=O)c4c(O)ccc(Cl)c4[C@@](C)(O)[C@H]3C[C@@H]12 :: Not Active
CCCN(CCC)S(=O)(=O)c1ccc(C(=O)O)cc1 :: Not Active
CC[C@@H](C(=O)[C@@H](C)[C@@H](O)[C@H](C)[C@@H]1O[C@@H]([C@@H](CC)C(=O)O)CC[C@@H]1C)[C@H]1O[C@]2(C=C[C@@H](O)[C@]3(CC[C@@](C)([C@H]4CC[C@](O)(CC)[C@H](C)O4)O3)O2)[C@H](C)C[C@@H]1C :: Not Active
CN(C/C=C/C#CC(C)(C)C)Cc1cccc2ccccc12 :: Not Active

Query block: Complete the entry with IC50 for O=C1CN=C(c2ccccc2Cl)c2cc([N+](=O)[O-])ccc2N1
Result block: Not Active

Query block: Complete the entry with IC50 for C#C[C@]1(OC(C)=O)CC[C@H]2[C@@H]3CCC4=C[C@@H](OC(C)=O)CC[C@@H]4[C@H]3CC[C@@]21C [ETHYNODIOL DIACETATE]
Result block: Not Active

---

# target-desc: Type-2 angiotensin II receptor (Homo sapiens); further: in other assays of this panel Not Active means under 50% inhibition at 10 µM
# Sequence (P50052 whole entry): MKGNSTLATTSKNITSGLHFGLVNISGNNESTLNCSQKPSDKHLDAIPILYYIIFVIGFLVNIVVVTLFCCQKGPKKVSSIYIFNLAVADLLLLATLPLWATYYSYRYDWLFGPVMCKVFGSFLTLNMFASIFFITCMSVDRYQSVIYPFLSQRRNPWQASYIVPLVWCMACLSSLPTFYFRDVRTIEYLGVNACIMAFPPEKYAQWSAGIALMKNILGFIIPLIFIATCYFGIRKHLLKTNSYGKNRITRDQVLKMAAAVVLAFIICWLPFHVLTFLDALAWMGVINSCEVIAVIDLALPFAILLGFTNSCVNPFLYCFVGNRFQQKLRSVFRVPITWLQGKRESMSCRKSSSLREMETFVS
# Assay type: cell-based
# condition-notes: cho-k1
readout-name: IC50

Cc1ccc(NC(=O)c2ccc(CN3CCN(C)CC3)cc2)cc1Nc1nccc(-c2cccnc2)n1 [IMATINIB] :: Not Active
C[n+]1ccc(-c2cc[n+](C)cc2)cc1.[Cl-].[Cl-] [PARAQUAT DICHLORIDE] :: Not Active
CC(C)c1cccc(C(C)C)c1O [PROPOFOL] :: Not Active
C#C[C@]1(OC(C)=O)CC[C@H]2[C@@H]3CCC4=C[C@@H](OC(C)=O)CC[C@@H]4[C@H]3CC[C@@]21C [ETHYNODIOL DIACETATE] :: Not Active
C[C@H]1O[C@@H](n2cc(F)c(=O)[nH]c2=O)[C@H](O)[C@@H]1O [DOXIFLURIDINE] :: Not Active
CCN(CC)CCNC(=O)c1cc(S(C)(=O)=O)ccc1OC [TIAPRIDE] :: Not Active
Cc1cccc(C)c1OCC(C)N (stereo not drawn) [MEXILETINE] :: Not Active
NC(=O)C[S+]([O-])C(c1ccccc1)c1ccccc1 (stereo not drawn) [MODAFINIL] :: Not Active
CCN(CC)CCOc1ccc(/C(=C(/Cl)c2ccccc2)c2ccccc2)cc1 [ENCLOMIPHENE] :: Not Active
O.O.O.O.O.O.[Cl-].[Cl-].[Sr+2] [STRONTIUM CHLORIDE HEXAHYDRATE] :: Not Active

Query block: Complete the entry with IC50 for Oc1c(Cl)cc(Cl)c(Cl)c1Cc1c(O)c(Cl)cc(Cl)c1Cl [HEXACHLOROPHENE]
Result block: Not Active

Query block: Complete the entry with IC50 for COC(=O)Nc1nc2ccc(C(=O)c3cccs3)cc2[nH]1 [NOCODAZOLE]
Result block: Not Active

Query block: Complete the entry with IC50 for CC(C)(C)NC(=O)[C@H]1CC[C@H]2[C@@H]3CC[C@H]4NC(=O)C=C[C@]4(C)[C@H]3CC[C@]12C [FINASTERIDE]
Result block: Not Active

Query block: Complete the entry with IC50 for COc1ccc(C2C(=O)c3ccccc3C2=O)cc1 [ANISINDIONE]
Result block: Not Active

Query block: Complete the entry with IC50 for O=C(O)c1cccnc1Nc1cccc(C(F)(F)F)c1 [NIFLUMIC ACID]
Result block: Not Active

Query block: Complete the entry with IC50 for CCC1(C)CC(=O)NC1=O (stereo not drawn) [ETHOSUXIMIDE]
Result block: Not Active

Query block: Complete the entry with IC50 for N#Cc1ccc(C(c2ccc(C#N)cc2)n2cncn2)cc1 [LETROZOLE]
Result block: Not Active

Query block: Complete the entry with IC50 for CCN1CCC[C@H]1CNC(=O)c1cc(S(N)(=O)=O)ccc1OC [LEVOSULPIRIDE]
Result block: Not Active

---

# target-desc: Vascular endothelial growth factor receptor 1 (Homo sapiens); further: in other assays of this panel Not Active means under 50% inhibition at 10 µM
# Sequence (P17948 whole entry): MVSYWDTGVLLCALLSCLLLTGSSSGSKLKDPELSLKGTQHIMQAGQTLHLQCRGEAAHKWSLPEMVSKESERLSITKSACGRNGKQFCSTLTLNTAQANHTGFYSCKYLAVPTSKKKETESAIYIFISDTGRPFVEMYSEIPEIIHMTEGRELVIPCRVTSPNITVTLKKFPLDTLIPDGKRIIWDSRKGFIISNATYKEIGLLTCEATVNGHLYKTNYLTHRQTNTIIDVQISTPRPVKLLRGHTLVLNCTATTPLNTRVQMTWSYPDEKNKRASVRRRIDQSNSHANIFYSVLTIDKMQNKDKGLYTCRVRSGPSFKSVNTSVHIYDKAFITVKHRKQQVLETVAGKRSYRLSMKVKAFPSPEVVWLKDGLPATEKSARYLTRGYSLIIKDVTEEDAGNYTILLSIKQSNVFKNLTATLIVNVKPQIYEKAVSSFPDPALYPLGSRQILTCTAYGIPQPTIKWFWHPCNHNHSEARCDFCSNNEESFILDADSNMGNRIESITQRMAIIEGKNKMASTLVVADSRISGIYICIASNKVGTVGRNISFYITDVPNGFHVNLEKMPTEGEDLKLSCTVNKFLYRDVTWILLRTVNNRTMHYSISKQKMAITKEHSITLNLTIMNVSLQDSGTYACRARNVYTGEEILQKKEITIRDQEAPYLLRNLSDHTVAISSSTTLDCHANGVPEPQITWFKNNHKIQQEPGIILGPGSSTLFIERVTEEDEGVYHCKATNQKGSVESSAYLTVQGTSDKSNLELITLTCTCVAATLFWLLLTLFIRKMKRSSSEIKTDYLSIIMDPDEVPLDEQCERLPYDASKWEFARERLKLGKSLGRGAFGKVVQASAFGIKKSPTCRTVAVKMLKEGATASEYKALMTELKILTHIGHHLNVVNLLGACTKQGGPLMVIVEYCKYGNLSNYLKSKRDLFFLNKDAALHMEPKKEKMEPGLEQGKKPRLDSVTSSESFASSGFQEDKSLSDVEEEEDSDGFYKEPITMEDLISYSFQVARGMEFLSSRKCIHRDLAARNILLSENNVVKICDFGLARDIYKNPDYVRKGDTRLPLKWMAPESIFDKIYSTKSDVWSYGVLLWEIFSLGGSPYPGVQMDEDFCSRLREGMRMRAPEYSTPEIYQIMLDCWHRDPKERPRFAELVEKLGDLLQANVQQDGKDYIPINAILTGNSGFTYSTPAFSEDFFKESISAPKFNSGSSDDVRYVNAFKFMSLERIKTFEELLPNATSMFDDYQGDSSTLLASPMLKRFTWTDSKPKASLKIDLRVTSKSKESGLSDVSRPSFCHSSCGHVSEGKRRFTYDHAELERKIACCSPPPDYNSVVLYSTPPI
# test-description: biochemical
# Assay type: cell-based, HUVEC
# condition-notes: huvec
readout-name: IC50

Sample records with IC50:
AURANOFIN :: Not Active
GRAMICIDIN :: Not Active
MANGANESE CHLORIDE ANHYDROUS :: Not Active
NYSTATIN :: Not Active
GADOPENTETATE DIMEGLUMINE :: Not Active
SODIUM ORTHOVANAD :: Not Active

Lab note: next substance to report on.
Query block: Specify IC50 for GENTAMICIN , system Vascular endothelial growth factor receptor 1 (Homo sapiens). Further: in other assays of this panel Not Active means under 50% inhibition at 10 µM.
Result block: Not Active
